System: Bacillus subtilis ATCC 6633
Type: cell-based
Non-standard residues stand in square brackets, D forms with d. Residues, ends and D or L forms follow the SMILES beside them. dPhe(3,4-F2) = N[C@H](Cc1ccc(F)c(F)c1)C(=O)O; d2Nal = N[C@H](Cc1ccc2ccccc2c1)C(=O)O; dNva = CCC[C@@H](N)C(=O)O
measurement.type: MIC Bacillus subtilis ATCC 6633 (µg/mL)
Answers are plain numbers, in µg/mL.

Example compounds with recorded MIC Bacillus subtilis ATCC 6633:
CC(=O)N[C@H](CCCCN)C(=O)N[C@H](CCCNC(=N)N)C(=O)N[C@H](CC(C)C)C(=O)N[C@H](CC(C)C)C(=O)N[C@H](Cc1ccc2ccccc2c1)C(=O)N[C@H](CCCCN)C(=O)N[C@H](CC(C)C)C(=O)N[C@H](CCCCN)C(=O)N[C@H](Cc1ccc2ccccc2c1)C(=O)N[C@H](CCCCN)C(=O)N[C@H](CCCNC(=N)N)C(N)=O [LV-23] (Ac-[dK][dR][dL][dL][d2Nal][dK][dL][dK][d2Nal][dK][dR]-NH2)
4
CC(=O)N[C@H](CCCNC(=N)N)C(=O)N[C@H](CCCCN)C(=O)N[C@H](CC(C)C)C(=O)N[C@H](CC(C)C)C(=O)N[C@H](Cc1ccc(F)c(F)c1)C(=O)N[C@H](CCCCN)C(=O)N[C@H](CC(C)C)C(=O)N[C@H](CCCCN)C(=O)N[C@H](Cc1ccc(F)c(F)c1)C(=O)N[C@H](CCCCN)C(=O)N[C@H](CCCNC(=N)N)C(N)=O [LV-6] (Ac-[dR][dK][dL][dL][dPhe(3,4-F2)][dK][dL][dK][dPhe(3,4-F2)][dK][dR]-NH2)
4
CC(=O)N[C@H](CCCCN)C(=O)N[C@H](CCCCN)C(=O)N[C@H](CC(C)C)C(=O)N[C@H](CC(C)C)C(=O)N[C@H](Cc1ccc(F)c(F)c1)C(=O)N[C@H](CCCNC(=N)N)C(=O)N[C@H](CC(C)C)C(=O)N[C@H](CCCCN)C(=O)N[C@H](Cc1ccc(F)c(F)c1)C(=O)N[C@H](CCCNC(=N)N)C(=O)N[C@H](CCCCN)C(N)=O [LV-25] (Ac-[dK][dK][dL][dL][dPhe(3,4-F2)][dR][dL][dK][dPhe(3,4-F2)][dR][dK]-NH2)
8

Hello, I would appreciate it if you could give MIC Bacillus subtilis ATCC 6633 for each entry below.
1. CC(=O)N[C@H](CCCCN)C(=O)N[C@H](CCCCN)C(=O)N[C@H](CC(C)C)C(=O)N[C@H](CC(C)C)C(=O)N[C@H](Cc1ccc2ccccc2c1)C(=O)N[C@H](CCCCN)C(=O)N[C@H](CC(C)C)C(=O)N[C@H](CCCCN)C(=O)N[C@H](Cc1ccc2ccccc2c1)C(=O)N[C@H](CCCCN)C(=O)N[C@H](CCCCN)C(N)=O [LV-17] (Ac-[dK][dK][dL][dL][d2Nal][dK][dL][dK][d2Nal][dK][dK]-NH2)
2. CCC[C@@H](NC(=O)[C@@H](CCCCN)NC(=O)[C@@H](CCCNC(=N)N)NC(C)=O)C(=O)N[C@H](CCC)C(=O)N[C@H](Cc1ccc2ccccc2c1)C(=O)N[C@H](CCCNC(=N)N)C(=O)N[C@H](CCC)C(=O)N[C@H](CCCCN)C(=O)N[C@H](Cc1ccc2ccccc2c1)C(=O)N[C@H](CCCNC(=N)N)C(=O)N[C@H](CCCCN)C(N)=O [LV-13] (Ac-[dR][dK][dNva][dNva][d2Nal][dR][dNva][dK][d2Nal][dR][dK]-NH2)

**Result**
1: 4; 2: 4

----------
Test system: Corynebacterium ATCC 7715
Type: cell-based
Non-standard residues stand in square brackets, D forms with d. Residues, ends and D or L forms follow the SMILES beside them. dPhe(4-Me) = Cc1ccc(C[C@@H](N)C(=O)O)cc1; d2Nal = N[C@H](Cc1ccc2ccccc2c1)C(=O)O; dNle = CCCC[C@@H](N)C(=O)O
measurement.type: MIC Corynebacterium ATCC 7715 (µg/mL)
Numbers only, in µg/mL.

CC(=O)N[C@H](CCCNC(=N)N)C(=O)N[C@H](CCCCN)C(=O)N[C@H](CC(C)C)C(=O)N[C@H](CC(C)C)C(=O)N[C@H](Cc1ccc(C)cc1)C(=O)N[C@H](CCCCN)C(=O)N[C@H](CC(C)C)C(=O)N[C@H](CCCCN)C(=O)N[C@H](Cc1ccc(C)cc1)C(=O)N[C@H](CCCCN)C(=O)N[C@H](CCCNC(=N)N)C(N)=O [LV-11] (Ac-[dR][dK][dL][dL][dPhe(4-Me)][dK][dL][dK][dPhe(4-Me)][dK][dR]-NH2)
8
CC(=O)N[C@H](CCCCN)C(=O)N[C@H](CCCNC(=N)N)C(=O)N[C@H](CC(C)C)C(=O)N[C@H](CC(C)C)C(=O)N[C@H](Cc1ccc2ccccc2c1)C(=O)N[C@H](CCCCN)C(=O)N[C@H](CC(C)C)C(=O)N[C@H](CCCCN)C(=O)N[C@H](Cc1ccc2ccccc2c1)C(=O)N[C@H](CCCCN)C(=O)N[C@H](CCCNC(=N)N)C(N)=O [LV-23] (Ac-[dK][dR][dL][dL][d2Nal][dK][dL][dK][d2Nal][dK][dR]-NH2)
4

For the next question, use this compound.
**Query** Any idea what its MIC Corynebacterium ATCC 7715 is? The compound is CCCC[C@@H](NC(=O)[C@@H](CCCCN)NC(=O)[C@@H](CCCNC(=N)N)NC(C)=O)C(=O)N[C@H](CCCC)C(=O)N[C@H](Cc1ccc2ccccc2c1)C(=O)N[C@H](CCCNC(=N)N)C(=O)N[C@H](CCCC)C(=O)N[C@H](CCCCN)C(=O)N[C@H](Cc1ccc2ccccc2c1)C(=O)N[C@H](CCCNC(=N)N)C(=O)N[C@H](CCCCN)C(N)=O [LV-12] (Ac-[dR][dK][dNle][dNle][d2Nal][dR][dNle][dK][d2Nal][dR][dK]-NH2)
**Result** 2

----------
What MIC Candida glabrata ATCC 15126 was measured for each of the following?
Tested on: Candida glabrata ATCC 15126
Assay type: cell-based
Text: According to the Standards of Clinical and Laboratory Standards Institute (CLSI) of the USA for antimicrobial drug susceptibility test operation standards, the micronutrient serial twofold dilution method was used further determine MICs of 30 AMPs (S/N: LV-1 to LV-30) 10 clinically common sensitive strains and 6 fungi in clinical practice. The experiment was repeated 5 times in parallel.
Non-standard residues stand in square brackets, D forms with d. Residues, ends and D or L forms follow the SMILES beside them. dPhe(4-CF3) = N[C@H](Cc1ccc(C(F)(F)F)cc1)C(=O)O; dPhe(4-Me) = Cc1ccc(C[C@@H](N)C(=O)O)cc1; d2Nal = N[C@H](Cc1ccc2ccccc2c1)C(=O)O
Give the value; after it, write the unit.

CC(=O)N[C@H](CCCNC(=N)N)C(=O)N[C@H](CCCNC(=N)N)C(=O)N[C@H](CC(C)C)C(=O)N[C@H](CC(C)C)C(=O)N[C@H](Cc1ccc2ccccc2c1)C(=O)N[C@H](CCCCN)C(=O)N[C@H](CC(C)C)C(=O)N[C@H](CCCCN)C(=O)N[C@H](Cc1ccc2ccccc2c1)C(=O)N[C@H](CCCCN)C(=O)N[C@H](CCCNC(=N)N)C(N)=O [LV-24] (Ac-[dR][dR][dL][dL][d2Nal][dK][dL][dK][d2Nal][dK][dR]-NH2)
4 µg/mL
CC(=O)N[C@H](CCCNC(=N)N)C(=O)N[C@H](CCCCN)C(=O)N[C@H](CC(C)C)C(=O)N[C@H](CC(C)C)C(=O)N[C@H](Cc1ccccc1)C(=O)N[C@H](CCCNC(=N)N)C(=O)N[C@H](CC(C)C)C(=O)N[C@H](CCCCN)C(=O)N[C@H](Cc1ccccc1)C(=O)N[C@H](CCCNC(=N)N)C(=O)N[C@H](CCCCN)C(N)=O [LV-2] (Ac-[dR][dK][dL][dL][dF][dR][dL][dK][dF][dR][dK]-NH2)
16 µg/mL
CC(=O)N[C@H](CCCNC(=N)N)C(=O)N[C@H](CCCCN)C(=O)N[C@H](CC(C)C)C(=O)N[C@H](CC(C)C)C(=O)N[C@H](Cc1ccc2ccccc2c1)C(=O)N[C@H](CCCCN)C(=O)N[C@H](CC(C)C)C(=O)N[C@H](CCCCN)C(=O)N[C@H](Cc1ccc2ccccc2c1)C(=O)N[C@H](CCCCN)C(=O)N[C@H](CCCNC(=N)N)C(N)=O [LV-18] (Ac-[dR][dK][dL][dL][d2Nal][dK][dL][dK][d2Nal][dK][dR]-NH2)
4 µg/mL
CC(=O)N[C@H](CCCCN)C(=O)N[C@H](CCCNC(=N)N)C(=O)N[C@H](CC(C)C)C(=O)N[C@H](CC(C)C)C(=O)N[C@H](Cc1ccc2ccccc2c1)C(=O)N[C@H](CCCCN)C(=O)N[C@H](CC(C)C)C(=O)N[C@H](CCCCN)C(=O)N[C@H](Cc1ccc2ccccc2c1)C(=O)N[C@H](CCCCN)C(=O)N[C@H](CCCNC(=N)N)C(N)=O [LV-23] (Ac-[dK][dR][dL][dL][d2Nal][dK][dL][dK][d2Nal][dK][dR]-NH2)
8 µg/mL
CC(=O)N[C@H](CCCNC(=N)N)C(=O)N[C@H](CCCCN)C(=O)N[C@H](CC(C)C)C(=O)N[C@H](CC(C)C)C(=O)N[C@H](Cc1ccc(C(F)(F)F)cc1)C(=O)N[C@H](CCCCN)C(=O)N[C@H](CC(C)C)C(=O)N[C@H](CCCCN)C(=O)N[C@H](Cc1ccc(C(F)(F)F)cc1)C(=O)N[C@H](CCCCN)C(=O)N[C@H](CCCNC(=N)N)C(N)=O [LV-9] (Ac-[dR][dK][dL][dL][dPhe(4-CF3)][dK][dL][dK][dPhe(4-CF3)][dK][dR]-NH2)
8 µg/mL
CC(=O)N[C@H](CCCNC(=N)N)C(=O)N[C@H](CCCCN)C(=O)N[C@H](CC(C)C)C(=O)N[C@H](CC(C)C)C(=O)N[C@H](Cc1ccc2ccccc2c1)C(=O)N[C@H](CCCNC(=N)N)C(=O)N[C@H](CC(C)C)C(=O)N[C@H](CCCCN)C(=O)N[C@H](Cc1ccc2ccccc2c1)C(=O)N[C@H](CCCNC(=N)N)C(=O)N[C@H](CCCCN)C(N)=O [LV-20] (Ac-[dR][dK][dL][dL][d2Nal][dR][dL][dK][d2Nal][dR][dK]-NH2)
8 µg/mL
CC(=O)N[C@H](CCCCN)C(=O)N[C@H](CCCCN)C(=O)N[C@H](CC(C)C)C(=O)N[C@H](CC(C)C)C(=O)N[C@H](Cc1ccc2ccccc2c1)C(=O)N[C@H](CCCNC(=N)N)C(=O)N[C@H](CC(C)C)C(=O)N[C@H](CCCCN)C(=O)N[C@H](Cc1ccc2ccccc2c1)C(=O)N[C@H](CCCNC(=N)N)C(=O)N[C@H](CCCCN)C(N)=O [LV-19] (Ac-[dK][dK][dL][dL][d2Nal][dR][dL][dK][d2Nal][dR][dK]-NH2)
8 µg/mL

Now examine the next entry.
**Query** # query: MIC Candida glabrata ATCC 15126 of entry CC(=O)N[C@H](CCCNC(=N)N)C(=O)N[C@H](CCCCN)C(=O)N[C@H](CC(C)C)C(=O)N[C@H](CC(C)C)C(=O)N[C@H](Cc1ccc(C)cc1)C(=O)N[C@H](CCCCN)C(=O)N[C@H](CC(C)C)C(=O)N[C@H](CCCCN)C(=O)N[C@H](Cc1ccc(C)cc1)C(=O)N[C@H](CCCCN)C(=O)N[C@H](CCCNC(=N)N)C(N)=O [LV-11] (Ac-[dR][dK][dL][dL][dPhe(4-Me)][dK][dL][dK][dPhe(4-Me)][dK][dR]-NH2)
**Result** 16 µg/mL
